The measurements presented in this section are drawn from ChEMBL document CHEMBL3244338.

The following molecules are listed with their measured Activity values.
- Tested on: Mus musculus
- assay.name: Toxicity in mouse P388 cells allografted BDF1 mouse assessed as body weight difference at 12.5 mg/kg administered 24 hrs post challenge relative to control
- Type: organism-based
- Set-up: dose 12.5 mg/kg
- assay.conditions: in vivo

- compound.structure.string: "O=C1c2ccccc2C(=O)c2c(NCCN3CCNCC3)ccc(NCCN3CCNCC3)c21"
  Activity, g: -1.1
- compound.structure.string: "CNCCNc1ccc(NCCNC)c2c1C(=O)c1ccccc1C2=O"
  Activity, g: -1.9
- compound.structure.string: "O=C1c2ccccc2C(=O)c2c(NCCCNCCO)ccc(NCCCNCCO)c21"
  Activity, g: -1.4
- compound.structure.string: "NCCNc1ccc(NCCN)c2c1C(=O)c1ccccc1C2=O"
  Activity, g: -1.1
- compound.structure.string: "CCNCCNc1ccc(NCCNCC)c2c1C(=O)c1ccccc1C2=O"
  Activity, g: -2.8

====

- Test system: Mus musculus
- assay.name: Toxicity in mouse P388 cells allografted BDF1 mouse assessed as body weight difference at 50 mg/kg administered 24 hrs post challenge relative to control
- Assay type: organism-based
- Parameters: dose 50 mg/kg
- assay.conditions: in vivo
Everything with Activity lower than -2 g is rule not met; everything else, including exactly -2 g, is rule met.

- compound.structure.string: "O=C1c2ccccc2C(=O)c2c(NCCNCCNCCO)ccc(NCCNCCNCCO)c21"
  group: "rule met"
- compound.structure.string: "CCCNCCNc1ccc(NCCNCCC)c2c1C(=O)c1ccccc1C2=O"
  group: "rule met"
- compound.structure.string: "O=C1c2ccccc2C(=O)c2c(NCCCNCCO)ccc(NCCCNCCO)c21"
  group: "rule not met"
- compound.structure.string: "O=C1c2ccccc2C(=O)c2c(NCCN3CCNCC3)ccc(NCCN3CCNCC3)c21"
  group: "rule not met"
- compound.structure.string: "O=C1c2ccccc2C(=O)c2c(NCCSCCO)ccc(NCCSCCO)c21"
  group: "rule met"
- compound.structure.string: "O=C1c2ccccc2C(=O)c2c3c(cc(NCCNCCO)c21)N(CCO)CCN3"
  group: "rule not met"
- compound.structure.string: "O=C1c2ccccc2C(=O)c2c(NCCN3CCCCC3)ccc(NCCN3CCCCC3)c21"
  group: "rule not met"
- compound.structure.string: "O=C1c2ccccc2C(=O)c2c(NCCCCCO)ccc(NCCCCCO)c21"
  group: "rule met"
